study system: T1, hIL2-DM-his (human, UniProt P60568 21-153)
T1 construct: expressed in ExpiCHO-S cells, nickel-column purified; also called hIL-2 mutein containing two point mutations K64G and N90R (with a his-tag); not shown: his-tag
T1 sequence (P60568 21-153 K84G/N110R): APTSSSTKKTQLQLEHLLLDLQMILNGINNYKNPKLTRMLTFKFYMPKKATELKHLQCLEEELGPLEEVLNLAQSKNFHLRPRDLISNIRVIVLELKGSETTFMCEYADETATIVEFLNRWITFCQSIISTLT
assay details: BLI ForteBio, Ab on Protein A sensor
Items are presented alongside their recorded Binding Response (nm).
Just the number in nm, nothing appended.

* hS4B6-H6K3-hu08 (antibody, V domains shown, H6K3 with heavy chain N76D; also called H6K3-huis) VH: QVQLVQSGAEVKKPGATVKISCKVSGDTITAYYLHWVRQAPGQGLEWIGRIDPEDDSTKYAENFKNRVTITADTSTDTAYMELSSLRSEDTAVYYCTTVTFYYSRELRWFAYWGQGTLVTVSS VL: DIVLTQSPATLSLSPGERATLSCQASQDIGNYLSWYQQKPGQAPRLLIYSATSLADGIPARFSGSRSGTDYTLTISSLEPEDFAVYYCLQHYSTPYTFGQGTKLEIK | 0.127

Attention now shifts to the item below.
Binding Response (nm) measured on hS4B6-H6K3-hu05 (antibody, V domains shown, H6K3 with heavy chain I48M) VH: QVQLVQSGAEVKKPGATVKISCKVSGDTITAYYLHWVRQAPGQGLEWMGRIDPEDDSTKYAENFKNRVTITADTSTNTAYMELSSLRSEDTAVYYCTTVTFYYSRELRWFAYWGQGTLVTVSS VL: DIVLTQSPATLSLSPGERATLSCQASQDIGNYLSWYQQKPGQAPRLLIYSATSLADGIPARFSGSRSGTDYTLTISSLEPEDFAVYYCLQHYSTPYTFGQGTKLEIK = 0.139
